Assay: Food effect study: single oral 450 mg MNTX fasted vs high-fat breakfast, 2-period crossover
Format: in vivo, human
Conditions: both sexes, human, plasma, oral, 450 mg, 450 mg Single-Dose Fasted, harmonic mean
endpoint name: half-life

Form: compound = C[N@+]1(CC2CC2)CC[C@]23c4c5ccc(O)c4O[C@H]2C(=O)CC[C@@]3(O)[C@H]1C5.[Br-] [MNTX] ; half-life = ~17 h

---

Assay: Study C: single and multiple dose pharmacokinetics of MNTX and metabolites, MNTX 450 mg PO x 7 days
Format: in vivo, human
Conditions: human, plasma, po, 450 mg, 450 mg Tablets oral, Day 7, mean
Method: Presented herein is a clinical pharmacokinetics study, Study C, as well as Studies A and B. Study A investigated the single and multiple dose pharmacokinetics of methylnaltrexone (MNTX) and its metabolites (M2: methylnaltrexone sulfate; M4: 6α-methylnaltrexol; and M5: 6β-methylnaltrexol) following the subcutaneous administration of 12 mg methylnaltrexone. […]
endpoint name: AUC(0-inf) (ng·h/mL)
Report as a plain number; the unit ng·h/mL is understood.

Form: compound = C[N@+]1(CC2CC2)CC[C@]23c4c5ccc(O)c4O[C@H]2C(=O)CC[C@@]3(O)[C@H]1C5.[Br-] [MNTX] ; AUC(0-inf) = 404

---

Test: Study C: single and multiple dose pharmacokinetics of MNTX and metabolites, MNTX 450 mg PO x 7 days
Assay type: in vivo, human
Conditions: human, plasma, po, 450 mg, 450 mg Tablets oral, Day 1, mean; read-out: Cmax
endpoint name: Cmax (µg/mL)
Report as a plain number; the unit µg/mL is understood.

Form: compound = C[N@+]1(CC2CC2)CC[C@]23c4c5ccc(O)c4O[C@H]2C(=O)CC[C@@]3(O)[C@H]1C5.[Br-] [MNTX] ; Cmax = 0.0471

---

Assay: Comparative bioavailability: single oral 150, 300, 450 mg MNTX tablets vs 12 mg SC injection, crossover
Format: in vivo, human
Conditions: human, plasma, po, 300 mg, MNTX 300 mg Tablet, single oral dose, mean; read-out: AUC0-∞
From the text: The oral dosage levels and formulation of MNTX evaluated here were the same as those in a phase 3 study of oral MNTX tablets, with the exception of a nonfunctional coating on the MNTX tablets. […] The pharmacokinetics of the uncoated tablet used in the phase 3 study and the coated tablets used in the current study were compared in a separate study. […] A single-dose pharmacokinetic profile of oral MNTX tablets was also planned for evaluation in this study. […]
endpoint name: AUC(0-inf) (ng·h/mL)
Report as a plain number; the unit ng·h/mL is understood.

Form: molecule = C[N@+]1(CC2CC2)CC[C@]23c4c5ccc(O)c4O[C@H]2C(=O)CC[C@@]3(O)[C@H]1C5.[Br-] [MNTX] ; AUC(0-inf) = 231

---

Assay: Food effect study: single oral 450 mg MNTX fasted vs high-fat breakfast, 2-period crossover
Assay type: in vivo, human
Conditions: both sexes, human, plasma, oral, 450 mg, 450 mg single dose, Fasted; read-out: AUC0-∞, Geometric Least Squares Mean
endpoint name: AUC(0-inf) (ng·h/mL)
Report as a plain number; the unit ng·h/mL is understood.

Form: compound = C[N@+]1(CC2CC2)CC[C@]23c4c5ccc(O)c4O[C@H]2C(=O)CC[C@@]3(O)[C@H]1C5.[Br-] ; AUC(0-inf) = 317

---

Assay: Comparative bioavailability: single oral 150, 300, 450 mg MNTX tablets vs 12 mg SC injection, crossover
Assay type: in vivo, human
Conditions: human, plasma, oral, 300 mg, MNTX 300 mg Tablet; read-out: Cmax, Geometric LSM
endpoint name: Cmax (ng/mL)
Report as a plain number; the unit ng/mL is understood.

Form: molecule = C[N@+]1(CC2CC2)CC[C@]23c4c5ccc(O)c4O[C@H]2C(=O)CC[C@@]3(O)[C@H]1C5.[Br-] ; Cmax = 21.8

---

Experiment: Food effect study: single oral 450 mg MNTX fasted vs high-fat breakfast, 2-period crossover
Assay type: in vivo, human
Conditions: both sexes, human, plasma, oral, 450 mg, 450 mg Single-Dose Fed, arithmetic mean; read-out: Cmax
endpoint name: Cmax (ng/mL)
Report as a plain number; the unit ng/mL is understood.

Form: compound = C[N@+]1(CC2CC2)CC[C@]23c4c5ccc(O)c4O[C@H]2C(=O)CC[C@@]3(O)[C@H]1C5.[Br-] ; Cmax = 12.9

---

Assay: Comparative bioavailability: single oral 150, 300, 450 mg MNTX tablets vs 12 mg SC injection, crossover
Format: in vivo, human
Settings: human, plasma, oral, 300 mg, MNTX 300 mg Tablet; read-out: AUC0-t, Geometric LSM
endpoint name: AUC(0-t) (ng·h/mL)
Report as a plain number; the unit ng·h/mL is understood.

Form: molecule = C[N@+]1(CC2CC2)CC[C@]23c4c5ccc(O)c4O[C@H]2C(=O)CC[C@@]3(O)[C@H]1C5.[Br-] [MNTX] ; AUC(0-t) = 198

---

Assay: Comparative bioavailability: single oral 150, 300, 450 mg MNTX tablets vs 12 mg SC injection, crossover
Assay type: in vivo, human
Conditions: human, plasma, sc, 12 mg, MNTX 12 mg SC Injection, single dose, harmonic mean
endpoint name: half-life (min)
Report as a plain number; the unit min is understood.

Form: compound = C[N@+]1(CC2CC2)CC[C@]23c4c5ccc(O)c4O[C@H]2C(=O)CC[C@@]3(O)[C@H]1C5.[Br-] ; half-life = 552

---

Assay: Comparative bioavailability: single oral 150, 300, 450 mg MNTX tablets vs 12 mg SC injection, crossover
Format: in vivo, human
Details: human, plasma, oral, 300 mg, MNTX 300 mg Tablet; read-out: AUC0-∞, Geometric LSM
endpoint name: AUC(0-inf) (ng·h/mL)
Report as a plain number; the unit ng·h/mL is understood.

Form: compound = C[N@+]1(CC2CC2)CC[C@]23c4c5ccc(O)c4O[C@H]2C(=O)CC[C@@]3(O)[C@H]1C5.[Br-] ; AUC(0-inf) = 200

---

Assay: Study B: single and multiple dose pharmacokinetics after 20-minute intravenous infusion of 24 mg methylnaltrexone
Format: in vivo, human
Settings: human, in vivo, iv, 24 mg, 24 mg IV infusion, Day 7, mean; read-out: Cmax
endpoint name: Cmax (ng/mL)
Report as a plain number; the unit ng/mL is understood.

Form: compound = C[N@+]1(CC2CC2)CC[C@]23c4c5ccc(O)c4O[C@H]2C(=O)CC[C@@]3(O)[C@H]1C5.[Br-] ; Cmax = 520
